The molecules listed here are annotated with their MIC50.
System: Enterococcus faecalis
measurementProtocol: Antibacterial activity against Enterococcus faecalis by broth dilution method
Assay type: functional
measuredParameter: MIC50 (µg/mL)

givenSmiles	measured
C[C@H]1COc2c(N3CCN(C)CC3)c(F)cc3c(=O)c(C(=O)O)cn1c23.C[C@H]1COc2c(N3CCN(C)CC3)c(F)cc3c(=O)c(C(=O)O)cn1c23.O	2
CN(C)c1cc(NC(=O)CNC(C)(C)C)c(O)c2c1C[C@H]1C[C@H]3[C@H](N(C)C)C(O)=C(C(N)=O)C(=O)[C@@]3(O)C(O)=C1C2=O	0.25
COc1c(N2C[C@@H]3CCCN[C@@H]3C2)c(F)cc2c(=O)c(C(=O)O)cn(C3CC3)c12	0.5

---

System: Acinetobacter baumannii
measurementProtocol: Antibacterial activity against Acinetobacter baumannii by broth dilution method
Type: functional

givenSmiles	MIC90
CN(C)c1cc(NC(=O)CNC(C)(C)C)c(O)c2c1C[C@H]1C[C@H]3[C@H](N(C)C)C(O)=C(C(N)=O)C(=O)[C@@]3(O)C(O)=C1C2=O	2 µg/mL
CC(C)(O/N=C(\C(=O)N[C@@H]1C(=O)N2C(C(=O)[O-])=C(C[n+]3ccccc3)CS[C@H]12)c1csc(N)n1)C(=O)O	> 128 µg/mL
CCN1CCN(C(=O)N[C@@H](C(=O)N[C@@H]2C(=O)N3[C@@H]2SC(C)(C)[C@@H]3C(=O)O)c2ccccc2)C(=O)C1=O	> 128 µg/mL
COc1c(N2C[C@@H]3CCCN[C@@H]3C2)c(F)cc2c(=O)c(C(=O)O)cn(C3CC3)c12	> 8 µg/mL
C[C@H]1COc2c(N3CCN(C)CC3)c(F)cc3c(=O)c(C(=O)O)cn1c23.C[C@H]1COc2c(N3CCN(C)CC3)c(F)cc3c(=O)c(C(=O)O)cn1c23.O	16 µg/mL
CO/N=C(\C(=O)N[C@@H]1C(=O)N2C(C(=O)O)=C(CSc3nc(=O)c(O)nn3C)CS[C@H]12)c1csc(N)n1	> 8 µg/mL

---

Below, each of the compounds is paired with its reported MIC90 value.
Tested on: Escherichia coli
measurementProtocol: Antibacterial activity against ciprofloxacin resistant Escherichia coli by broth dilution method
Assay type: functional

givenSmiles	assaySystem	MIC90
COc1c(N2C[C@@H]3CCCN[C@@H]3C2)c(F)cc2c(=O)c(C(=O)O)cn(C3CC3)c12	Escherichia coli	> 8 µg/mL
O=C(O)c1cn(C2CC2)c2cc(N3CCNCC3)c(F)cc2c1=O	Escherichia coli	> 16 µg/mL
C[C@H]1COc2c(N3CCN(C)CC3)c(F)cc3c(=O)c(C(=O)O)cn1c23.C[C@H]1COc2c(N3CCN(C)CC3)c(F)cc3c(=O)c(C(=O)O)cn1c23.O	Escherichia coli	> 16 µg/mL
COc1c(N2C[C@@H](C)C[C@H](N)C2)ccc2c(=O)c(C(=O)O)cn(C3CC3)c12.O=C(O)CC(O)C(=O)O	Escherichia coli	> 16 µg/mL
CCN1CCN(C(=O)N[C@@H](C(=O)N[C@@H]2C(=O)N3[C@@H]2SC(C)(C)[C@@H]3C(=O)O)c2ccccc2)C(=O)C1=O	Escherichia coli	0.5 µg/mL
CO/N=C(\C(=O)N[C@@H]1C(=O)N2C(C(=O)O)=C(CSc3nc(=O)c(O)nn3C)CS[C@H]12)c1csc(N)n1	Escherichia coli	64 µg/mL
CN(C)c1cc(NC(=O)CNC(C)(C)C)c(O)c2c1C[C@H]1C[C@H]3[C@H](N(C)C)C(O)=C(C(N)=O)C(=O)[C@@]3(O)C(O)=C1C2=O	Escherichia coli	> 8 µg/mL

---

Tested on: Streptococcus pneumoniae
measurementProtocol: Antibacterial activity against Levofloxacin resistant Streptococcus pneumoniae by broth dilution method
Type: functional

givenSmiles	MIC50
O=C(O)c1cn(C2CC2)c2cc(N3CCNCC3)c(F)cc2c1=O	> 16 µg/mL
CC(=O)NC[C@H]1CN(c2ccc(N3CCOCC3)c(F)c2)C(=O)O1	1 µg/mL
COc1c(N2C[C@@H](C)C[C@H](N)C2)ccc2c(=O)c(C(=O)O)cn(C3CC3)c12.O=C(O)CC(O)C(=O)O	1 µg/mL
COc1c(N2C[C@@H]3CCCN[C@@H]3C2)c(F)cc2c(=O)c(C(=O)O)cn(C3CC3)c12	2 µg/mL

---

Test system: Enterobacter cloacae
measurementProtocol: Antibacterial activity against Enterobacter cloacae by broth dilution method
Type: functional
measuredParameter: MIC90 (mg/L)

molecule	measuredParameter	cmp	measured
C[C@H]1COc2c(N3CCN(C)CC3)c(F)cc3c(=O)c(C(=O)O)cn1c23.C[C@H]1COc2c(N3CCN(C)CC3)c(F)cc3c(=O)c(C(=O)O)cn1c23.O	MIC90	=	16
CCN1CCN(C(=O)N[C@@H](C(=O)N[C@@H]2C(=O)N3[C@@H]2SC(C)(C)[C@@H]3C(=O)O)c2ccccc2)C(=O)C1=O	MIC90	>	128
COc1c(N2C[C@@H](C)C[C@H](N)C2)ccc2c(=O)c(C(=O)O)cn(C3CC3)c12.O=C(O)CC(O)C(=O)O	MIC90	>	16
CC(C)(O/N=C(\C(=O)N[C@@H]1C(=O)N2C(C(=O)[O-])=C(C[n+]3ccccc3)CS[C@H]12)c1csc(N)n1)C(=O)O	MIC90	>	128
C[C@@H](O)[C@H]1C(=O)N2C(C(=O)O)=C(SCCNC=N)C[C@H]12 [IMIPENEM ANHYDROUS]	MIC90	=	4
CO/N=C(\C(=O)N[C@@H]1C(=O)N2C(C(=O)O)=C(CSc3nc(=O)c(O)nn3C)CS[C@H]12)c1csc(N)n1	MIC90	>	8
CN(C)c1cc(NC(=O)CNC(C)(C)C)c(O)c2c1C[C@H]1C[C@H]3[C@H](N(C)C)C(O)=C(C(N)=O)C(=O)[C@@]3(O)C(O)=C1C2=O	MIC90	=	2

---

Examples of molecules with documented MIC90 follow.
System: Enterococcus faecium
measurementProtocol: Antibacterial activity against vancomycin resistant Enterococcus faecium by broth dilution method
Type: functional

givenSmiles	cmp	MIC90, µg/mL
COc1c(N2C[C@@H](C)C[C@H](N)C2)ccc2c(=O)c(C(=O)O)cn(C3CC3)c12.O=C(O)CC(O)C(=O)O	=	8
CC(=O)NC[C@H]1CN(c2ccc(N3CCOCC3)c(F)c2)C(=O)O1	=	2
CN(C)c1cc(NC(=O)CNC(C)(C)C)c(O)c2c1C[C@H]1C[C@H]3[C@H](N(C)C)C(O)=C(C(N)=O)C(=O)[C@@]3(O)C(O)=C1C2=O	=	0.12
CN[C@H](CC(C)C)C(=O)N[C@H]1C(=O)N[C@@H](CC(N)=O)C(=O)N[C@H]2C(=O)N[C@H]3C(=O)N[C@H](C(=O)N[C@H](C(=O)O)c4cc(O)cc(O)c4-c4cc3ccc4O)[C@H](O)c3ccc(c(Cl)c3)Oc3cc2cc(c3O[C@@H]2O[C@H](CO)[C@@H](O)[C@H](O)[C@H]2O[C@H]2C[C@](C)(N)[C@H](O)[C@H](C)O2)Oc2ccc(cc2Cl)[C@H]1O	>	16

---

MIC90 for assorted molecules
Test system: Streptococcus pneumoniae
measurementProtocol: Antibacterial activity against Levofloxacin susceptible Streptococcus pneumoniae by broth dilution method
Type: functional

givenSmiles	MIC90
C[C@H]1COc2c(N3CCN(C)CC3)c(F)cc3c(=O)c(C(=O)O)cn1c23.C[C@H]1COc2c(N3CCN(C)CC3)c(F)cc3c(=O)c(C(=O)O)cn1c23.O	2 µg/mL
CN(C)c1cc(NC(=O)CNC(C)(C)C)c(O)c2c1C[C@H]1C[C@H]3[C@H](N(C)C)C(O)=C(C(N)=O)C(=O)[C@@]3(O)C(O)=C1C2=O	0.06 µg/mL
CO/N=C(\C(=O)N[C@@H]1C(=O)N2C(C(=O)O)=C(CSc3nc(=O)c(O)nn3C)CS[C@H]12)c1csc(N)n1	2 µg/mL
COc1c(N2C[C@@H](C)C[C@H](N)C2)ccc2c(=O)c(C(=O)O)cn(C3CC3)c12.O=C(O)CC(O)C(=O)O	0.12 µg/mL
CN[C@H](CC(C)C)C(=O)N[C@H]1C(=O)N[C@@H](CC(N)=O)C(=O)N[C@H]2C(=O)N[C@H]3C(=O)N[C@H](C(=O)N[C@H](C(=O)O)c4cc(O)cc(O)c4-c4cc3ccc4O)[C@H](O)c3ccc(c(Cl)c3)Oc3cc2cc(c3O[C@@H]2O[C@H](CO)[C@@H](O)[C@H](O)[C@H]2O[C@H]2C[C@](C)(N)[C@H](O)[C@H](C)O2)Oc2ccc(cc2Cl)[C@H]1O	0.5 µg/mL
CC(=O)NC[C@H]1CN(c2ccc(N3CCOCC3)c(F)c2)C(=O)O1	1 µg/mL

---

Tested on: Citrobacter freundii
measurementProtocol: Antibacterial activity against Citrobacter freundii by broth dilution method
Assay type: functional
measuredParameter: log10 MIC50 (log10 of the value in µg/mL)

compound	measured
COc1c(N2C[C@@H](C)C[C@H](N)C2)ccc2c(=O)c(C(=O)O)cn(C3CC3)c12.O=C(O)CC(O)C(=O)O [NEMONOXACIN MALIC ACID]	-0.30
C[C@@H](O)[C@H]1C(=O)N2C(C(=O)O)=C(SCCNC=N)C[C@H]12 [IMIPENEM ANHYDROUS]	0.00
COc1c(N2C[C@@H]3CCCN[C@@H]3C2)c(F)cc2c(=O)c(C(=O)O)cn(C3CC3)c12 [MOXIFLOXACIN]	-0.30
CO/N=C(\C(=O)N[C@@H]1C(=O)N2C(C(=O)O)=C(CSc3nc(=O)c(O)nn3C)CS[C@H]12)c1csc(N)n1 [CEFTRIAXONE]	-0.60
CCN1CCN(C(=O)N[C@@H](C(=O)N[C@@H]2C(=O)N3[C@@H]2SC(C)(C)[C@@H]3C(=O)O)c2ccccc2)C(=O)C1=O [PIPERACILLIN]	1.20
C[C@H]1COc2c(N3CCN(C)CC3)c(F)cc3c(=O)c(C(=O)O)cn1c23.C[C@H]1COc2c(N3CCN(C)CC3)c(F)cc3c(=O)c(C(=O)O)cn1c23.O [LEVOFLOXACIN]	-0.92
CN(C)c1cc(NC(=O)CNC(C)(C)C)c(O)c2c1C[C@H]1C[C@H]3[C@H](N(C)C)C(O)=C(C(N)=O)C(=O)[C@@]3(O)C(O)=C1C2=O [TIGECYCLINE]	-0.60
